Origin of measurements: patent US20080131511A1

Test: Phase I study, single oral administration: pharmacokinetics in plasma
Type: in vivo, human
Conditions: male, plasma, oral; human; 20 mg administration; read-out: T1/2 (converted)
observable: half-life (h)
Answers are plain numbers, in h.

Q: Data request, read-out half-life, for "C=C1CC2(CCN(C)CC2)O[C@H]1C"
A: 3.38

====

Experiment: Phase I study, single oral administration: pharmacokinetics in plasma
Type: in vivo, human
Settings: male; human plasma; single oral 10 mg; read-out: T½ (converted)
observable: half-life (h)
Answers are plain numbers, in h.

Q: Query (compound): "C=C1CC2(CCN(C)CC2)O[C@H]1C" ; field requested: half-life
A: 3.42
